pIC50: −log10 of the molar value.
Record type: pIC50 measurement. Applies to: Serine/threonine-protein kinase B-raf (Homo sapiens, UniProt P15056, V600E)
Readout: pIC50

Study these solved cases before continuing.
[
  {
    "Structure smiles string": "CCCS(=O)(=O)Nc1ccc(F)c(C(=O)Nc2cnc3cc(C(F)(F)F)nn3c2)c1F",
    "Readout": "pIC50",
    "Measured result": 6.43
  },
  {
    "Structure smiles string": "CCCS(=O)(=O)Nc1ccc(F)c(C(=O)Nc2cnc3cc(-c4cnn(C)c4)nn3c2)c1F",
    "Readout": "pIC50",
    "Measured result": 7.32
  }
]

(I) CCCS(=O)(=O)Nc1ccc(F)c(C(=O)Nc2cnc3cc(-c4cccc(F)c4)nn3c2)c1F
(II) CCCS(=O)(=O)Nc1ccc(F)c(C(=O)Nc2cnc3cc[nH]c3c2)c1F
(III) CCCS(=O)(=O)Nc1ccc(F)c(C(=O)Nc2cnc3cc(-c4cccnc4)nn3c2)c1F
Please rank these molecules by pIC50 in descending order. Write the labels, ordered according to the request.
III, I, II
